From: paper PMC11423328

Listed proteins paired with reported Km
Substrate: CCCCCC(=O)N[C@H]1CCOC1=O
Assay: purified protein
Type: biochemical, Parageobacillus caldoxylosilyticus
Conditions: pH 8.3, 25 °C, 2.5 mM bicine, 150 mM NaCl, 0.2 mM CoCl2
Response body: numeric value in µM, unit text excluded.

Recorded Km, per entry:
[ask] Could you tell me which Km is on file for GcL (Parageobacillus caldoxylosilyticus NBRC 107762; I236M) (protein, expressed in E. coli BL21(DE3)-pGro7/GroEL with CoCl2; bimetallic Fe/Co centre; dimer) MANVIKARPKLYVMDNGRMRMDKNWMIAMHNPATIHNPNAQTEFVEFPIYTVLIDHPEGKILFDTSCNPNSMGPQGRWAESTQQMFPWTATEECYLHNRLEQLKVRPEDIRYVVASHLHLDHAGCLEMFTNATIIVHEDEFNGALQCYARNQKEGAYIWADIDAWIKNNLQWRTVKRHEDNILLAEGVKVLNFGSGHAWGMLGLHVELPETGGIILASDAIYTAESYGPPIKPPGMIYDSLGYMNTVERIRRIAQETKSQVWFGHDAEQFKKFRKSTEGYYE ?
[reply] 2.38

[ask] Could you tell me which Km is on file for GcL (Parageobacillus caldoxylosilyticus NBRC 107762; D121N) (protein, expressed in E. coli BL21(DE3)-pGro7/GroEL with CoCl2; bimetallic Fe/Co centre; dimer) MANVIKARPKLYVMDNGRMRMDKNWMIAMHNPATIHNPNAQTEFVEFPIYTVLIDHPEGKILFDTSCNPNSMGPQGRWAESTQQMFPWTATEECYLHNRLEQLKVRPEDIRYVVASHLHLNHAGCLEMFTNATIIVHEDEFNGALQCYARNQKEGAYIWADIDAWIKNNLQWRTVKRHEDNILLAEGVKVLNFGSGHAWGMLGLHVELPETGGIILASDAIYTAESYGPPIKPPGIIYDSLGYMNTVERIRRIAQETKSQVWFGHDAEQFKKFRKSTEGYYE ?
[reply] 13.0

[ask] Could you tell me which Km is on file for GcL (Parageobacillus caldoxylosilyticus NBRC 107762; G155P) (protein, expressed in E. coli BL21(DE3)-pGro7/GroEL with CoCl2; bimetallic Fe/Co centre; dimer) MANVIKARPKLYVMDNGRMRMDKNWMIAMHNPATIHNPNAQTEFVEFPIYTVLIDHPEGKILFDTSCNPNSMGPQGRWAESTQQMFPWTATEECYLHNRLEQLKVRPEDIRYVVASHLHLDHAGCLEMFTNATIIVHEDEFNGALQCYARNQKEPAYIWADIDAWIKNNLQWRTVKRHEDNILLAEGVKVLNFGSGHAWGMLGLHVELPETGGIILASDAIYTAESYGPPIKPPGIIYDSLGYMNTVERIRRIAQETKSQVWFGHDAEQFKKFRKSTEGYYE ?
[reply] 563

Continuing:
[ask] Could you tell me which Km is on file for GcL (Parageobacillus caldoxylosilyticus NBRC 107762; Y222F) (protein, expressed in E. coli BL21(DE3)-pGro7/GroEL with CoCl2; bimetallic Fe/Co centre; dimer) MANVIKARPKLYVMDNGRMRMDKNWMIAMHNPATIHNPNAQTEFVEFPIYTVLIDHPEGKILFDTSCNPNSMGPQGRWAESTQQMFPWTATEECYLHNRLEQLKVRPEDIRYVVASHLHLDHAGCLEMFTNATIIVHEDEFNGALQCYARNQKEGAYIWADIDAWIKNNLQWRTVKRHEDNILLAEGVKVLNFGSGHAWGMLGLHVELPETGGIILASDAIFTAESYGPPIKPPGIIYDSLGYMNTVERIRRIAQETKSQVWFGHDAEQFKKFRKSTEGYYE ?
[reply] 92.7
